Compiled from multiple publications: Ki readings for Melatonin receptor type 1A (Homo sapiens).
Strictly below 4 nM in Ki: label 1. Otherwise: label 0.

Check out these entries, answers already filled in.
COMPOUND: CC(=O)NCC1CCc2ccccc2N1Cc1ccccc1 (racemic)
LABEL: label 0
//
COMPOUND: C=CCC(=O)NCCc1c(Cc2ccccc2)oc2ccc(OC)cc12
LABEL: label 1

hey, is Ki for CCNC(=S)NCC1CCc2c(cccc2OC)N1 (racemic) lower than 4 nM or not?
label 0

hey, is Ki for O=C(NCCCc1cccc2c1C[C@@H](CCCCc1ccccc1)O2)C1CC1 lower than 4 nM or not?
label 1

hey, is Ki for COc1cccc2[nH]c(CCNC(C)=O)cc12 lower than 4 nM or not?
label 0

hey, is Ki for C#CCNC(=O)Cc1c[nH]c2ccc(OC)cc12 lower than 4 nM or not?
label 0

###

Compiled from multiple publications: Ki readings for Melatonin receptor type 1A (Homo sapiens, UniProt P48039).
Answers are plain numbers, in µM.

Provide the reported Ki of each entry below, same order.
1. CC(=O)NCCCc1cccc2ncoc12
2. CC(=O)NCCN(C)c1cccc(OCCCCCCOc2ccccc2)c1
3. COc1ccc2ncnc(CCNC(=O)C3CC3)c2c1
4. CC(=O)N[C@@H](C)CSc1ccccc1
5. CCC(=O)NCCCc1ccc(OCc2ccccc2)c(OC)c1
6. CC(=O)NCC(Cc1ccccc1)c1ccccc1 (stereo not drawn)

[0.03, 0.0145, 0.549, 3.72, 2.01, 0.708]

###

Compiled from multiple publications: pKi readings for Melatonin receptor type 1A (Homo sapiens, UniProt P48039).
Numbers only, as −log10 of the molar value.

Check out these entries, answers already filled in.
MOLECULE: COc1ccc2[nH]cc(Cc3nnc(C)o3)c2c1
QUANTITY: pKi
MEAS_VALUE: 6.68
//
MOLECULE: COc1cccc(OC(C)CNC(=O)C2CC2)c1 (stereo unspecified)
QUANTITY: pKi
MEAS_VALUE: 9.03
//
MOLECULE: CC(=O)NCCc1cccc2ccc(OCCCCOc3ccc4cccc(CC(=O)O)c4c3)cc12
QUANTITY: pKi
MEAS_VALUE: 8.04
//
MOLECULE: CCNC(=O)NCCCc1cccc2nc(C)oc12
QUANTITY: pKi
MEAS_VALUE: 7.30
//
MOLECULE: CC(=O)NCCN(C)c1cccc(OCCCCCCOc2cccc(N(C)CCNC(C)=O)c2)c1
QUANTITY: pKi
MEAS_VALUE: 8.47

Consider now this further molecule.
The molecule listed as COc1ccc2c(c1)c(CCNC(C)=O)c(I)n2C shows pKi equal to 10.10

###

Compiled from multiple publications: pKi readings for Melatonin receptor type 1A (Homo sapiens).
Give bare numbers, as −log10 of the molar value.

Check out these entries, answers already filled in.
SMILES_CODE: CCC(=O)NCCc1cc2c(OC)cccc2n1Cc1ccccc1
pKi: 6.08

SMILES_CODE: COc1ccc2nc(-c3ccccc3)c(CCNC(C)=O)n2c1
pKi: 7.55

SMILES_CODE: CCC(=O)NCc1cc2c(OC)cccc2n1Cc1ccccc1
pKi: 6.20

SMILES_CODE: CCC(=O)NCCc1c(O)ccc2ccc(OC)cc12
pKi: 8.66

Provide the reported pKi of each entry below, same order.
1. O=C(CCCCl)NCCc1c(Sc2ccc(F)cc2)sc2ccc(F)cc12
2. CCCC(=O)NC[C@@H](C)Oc1cccc(OC)c1

1: 5.54; 2: 7.09
